I'd appreciate it if you could supply TGI values for the items below.
Tested on: CAKI-1 renal
Experiment: NCI tumour cell line growth inhibition, 48 h
Give your result in µM as a bare value.

Answer with the recorded TGI of COc1ccc(-c2[nH]c3ccccc3c2-c2ccc(OC)cc2)cc1 only.
17.1

Answer with the recorded TGI of CN(C)CCCn1c(=O)c2ccccc2c2ccccc21 only.
34.9

Answer with the recorded TGI of COC1/C=C/C(C)C(C(C)C(OC)C(C)CCC(=O)C(C)C(C/C=C/N(C)C=O)OC)OC(=O)C=CC2OC2(C)CC(OC)C(OC)C2=CC(=O)O[C@@H](C(C)C(OC)CC(OC)/C=C/C(C)C(O)C1)[C@H]2O (stereo partly specified) only.
0.0203

Answer with the recorded TGI of C1CCC([PH+](C2CCCCC2)C2CCCCC2[PH+](C2CCCCC2)C2CCCCC2)CC1.[Au].[CH-]1CCCCC1CC1CCCC[N-]1 (stereo unspecified) only.
2.29

Answer with the recorded TGI of NC(=O)c1csc(C2OC(CO)C(O)C2O)n1 (stereo unspecified) only.
1220

Answer with the recorded TGI of CC/C=C\C/C=C\C/C=C\CCCCCCCC(=O)OCC(O)CO (stereo unspecified) only.
59.8

Answer with the recorded TGI of CCN(CC)c1ccc2cc(C(=O)Nc3ccc4[nH]c(C(=O)N5C[C@@H](CCl)c6c5cc(OC(=O)Nc5ccccc5)c5[nH]cc(C)c65)cc4c3)oc2c1 only.
9.11e-05

Answer with the recorded TGI of CC1(O)C=CC(=O)C=C1 only.
91.5

Answer with the recorded TGI of CCC(CCCN)Nc1cc(OC)cc2c(C)ccnc12 (stereo unspecified) only.
29.5

Answer with the recorded TGI of OCC1OC(n2cnc3c(N/N=C\c4ccccn4)ncnc32)C(O)C1O (stereo unspecified) only.
0.809

Answer with the recorded TGI of CNCCCNCCCCNCCCN1C(=O)c2ccc3c4c(ccc(c24)C1=O)C(=O)N(CCCNCc1ccccc1OC)C3=O only.
24.4

Answer with the recorded TGI of O=C(CCCN1CCC2(CC1)CC(c1ccccc1)OC2=O)c1ccc(F)cc1 (stereo unspecified) only.
82.3

Answer with the recorded TGI of CCOC(=O)C1=NOC2(C=C(Br)C(=O)C(Br)=C2)C1 only.
2.88

Answer with the recorded TGI of C/C(=C\c1ccc2ccccc2c1)[N+](=O)[O-] only.
4.05

Answer with the recorded TGI of CN1CCN(C(=O)c2cc(-c3ccc4ncnc(N5CCc6cc(F)c(Cl)cc65)c4c3)cnc2N)CC1 only.
1.21

Answer with the recorded TGI of COc1ccc2cc1Oc1ccc(cc1)C[C@H]1c3c(cc4c(c3Oc3cc5c(cc3OC)CCN(C)[C@@H]5C2)OCO4)CCN1C only.
11.9

Answer with the recorded TGI of N#Cc1c(N2CCOCC2)nc(=S)[nH]c1-c1ccco1 only.
62.4
